Data provenance is patent US12404283B2.

Tested on: c-Myc
ASSAY_SUMMARY: c-Myc immunofluorescence assay
Type: cell-based, human
CONDITION_DESCRIPTION: A549 cells, 24 hours treatment, anti-c-Myc immunofluorescence
QUANTITY_NAME: Myc Efficacy (−LogEC50)

Worked examples follow.
>>> df
                                   compound            quantity_name           result
0  CN1CC(NC(=O)c2ccc3c(c2)sc2nc(-c4ccc(C5CCCN5)cc4F)cn23)C1 (stereo not shown) [Compound 506]  Myc Efficacy (−LogEC50)     +++ (+++ ≥6)
1  CCN(CC)CCCNC(=O)c1ccc2c(c1)sc1nc(-c3ccc(CNC4CC4)cc3)cn12 [compound 300]  Myc Efficacy (−LogEC50)     +++ (+++ ≥6)
2  CNC(=O)c1ccc(-c2cn3c(n2)sc2cc(C(=O)NCc4ccccc4)ccc23)cc1 [compound 275]  Myc Efficacy (−LogEC50)         − (− ≤3)
3  CNC(=O)c1ccc(-c2cn3c(n2)sc2cc(C(=O)NCCCN4CCCCC4)cnc23)cc1 [compound 317]  Myc Efficacy (−LogEC50)  + (+ >3 and <5)
4  O=C(NCCCN1CCC(F)CC1)c1ccc2c(c1)sc1nc(-c3ccc(C4CCCN4)c(F)c3F)cn12 (stereo not shown) [Compound 476]  Myc Efficacy (−LogEC50)     +++ (+++ ≥6)

Could you report Myc Efficacy (−LogEC50) for every entry in the following list?
1. CCN(CC)CCCNC(=O)c1ccc2c(c1)sc1nc(-c3cc(F)c(CNC4CC4)cc3F)cn12 [compound 334]
2. CCN(CC)CCCNC(=O)c1ccc2c(c1)sc1nc(-c3cccc(Cl)c3)cn12 [compound 131]
3. CCN(CC)CCCNC(=O)c1ccc2c(c1)sc1nc(-c3ccc(CNC4CC4)cc3)nn12 [compound 394]
4. CNC(=O)c1ccc(-c2cn3c(n2)sc2cc(C(=O)NCC[C@@H]4CCCN4C)ccc23)cc1 [compound 303]
5. CCN(CC)CCCNC(=O)c1ccc2c(c1)sc1nc(-c3ccc(C(=O)NCCNC)cc3)cn12 [compound 295]
6. CCN(CC)CCCNC(=O)c1ccc2c(c1)sc1nc(-c3ccc(C#N)cc3)cn12 [compound 160]

(A)
++ (++ ≥5 and <6)
++ (++ ≥5 and <6)
++ (++ ≥5 and <6)
+ (+ >3 and <5)
++ (++ ≥5 and <6)
+ (+ >3 and <5)

Fill in Myc Efficacy (−LogEC50) for each of the 4 compounds listed.
1. CNC(=O)c1ccc(-c2cn3c(n2)sc2cc(C(=O)NC(C)C(=O)N(C)C)ccc23)cc1 (stereo not shown) [compound 197]
2. O=C(NC1CCOCC1)c1ccc2c(c1)sc1nc(-c3ccc(C4CCCN4)cc3F)cn12 (stereo not shown) [Compound 510]
3. C#CCCC1(CCOc2cccc(-c3cn4c(n3)sc3cc(C(=O)NCCCN(CC)CC)ccc34)c2)N=N1 [compound 327]
4. O=C(NCCCN1CCC(F)CC1)c1ccc2c(c1)sc1nc(-c3cc4c(cc3F)CCN4)cn12 [compound 601]

(A)
+ (+ >3 and <5)
+++ (+++ ≥6)
+ (+ >3 and <5)
+++ (+++ ≥6)

(Q) State the recorded Myc Efficacy (−LogEC50) for this entry: CNC(=O)c1ccc(-c2cn3c(n2)sc2cc(C(=O)NCC4(O)COC4)ccc23)cc1 [compound 195]
(A) − (− ≤3)
